# melting point listing for each entry below

COc1cc2c(cc1O)CCN(S(=O)(=O)c1cccc(CC(=O)O)c1)C2=O [203A]: 236 to 239 °C
COc1cc2c(cc1OCc1ccccc1)CCN(Cc1cc(OC)c(OC)c(OC)c1)C2 [compound 19]: 144 to 145 °C
COc1cc(OC)c(C(=O)N2CCc3cc(OCc4ccccc4)c(OC)cc3C2)c(OC)c1 [F1]: 70 to 72 °C
COc1cc2c(cc1OCc1ccccc1)CCN(S(=O)(=O)c1cccc(OC(F)(F)F)c1)C2 [compound 170]: 118 to 120 °C
COc1ccccc1CN1CCc2cc(O)ccc2C1 [B16]: 148 to 155 °C

Look up melting point for this compound: COc1cc2c(cc1OCc1ccccc1)CCCN(Cc1cc(OC)c(OC)c(OC)c1)C2=O [compound 314]
134 to 135 °C

Quick one: melting point of COc1cc2c(cc1O)CCC(=O)N2Cc1cc(OC)c(OC)c(OC)c1 [compound 293] ?
157 to 158 °C

Please report the recorded melting point for COc1cc2c(cc1O)CCN(Cc1ccccc1O)C2 [compound 69] .
151.9 to 152.6 °C

Need melting point of COc1cc2c(cc1OCc1ccccc1)CCN(Cc1ccncc1)C2 [compound 13] , thanks.
125 to 126 °C

* * *

# melting point annotations

COc1ccc(C(=O)N2CCc3cc(OCc4ccccc4)c(OC)cc3C2)cc1: 126 to 127 °C
COc1cc(OC)cc(C(=O)N2CCc3cc(OCc4ccccc4)c(OC)cc3C2)c1: 130 to 131 °C
COc1cc2c(cc1OCc1ccccc1)CCCC(=O)N2Cc1cc(OC)c(OC)c(OC)c1: 129 to 130 °C
COc1cccc(CN2CCCc3cc(O)c(OC)cc3C2)c1: 114 to 115 °C

// melting point lookup, key: Oc1ccc2c(c1)CCN(Cc1ccc3c(c1)OCO3)C2 [B24]
169 to 172 °C

* * *

Collected GI50 values appear next to each entry.
# Tested on: DU145 cells
# experimentDescription: Antiproliferative assay in DU145 cells, WST-1 cell proliferation assay, 96 hours (GI50)
# Assay type: cell-based
# conditionContext: Homo sapiens, DU-145, 96 hours post-treatment, 50% growth inhibition

// worked examples, GI50 included
COc1cc(CN2Cc3cc(OC)c(O)cc3CC2C)cc(OC)c1 (stereo not shown): 10 to 50 µM
COc1cc2c(cc1OS(N)(=O)=O)CC(C)(C)N(C(=O)c1cc(OC)c(OC)c(OC)c1)C2: > 100 µM
COc1cc2c(cc1O)CCN(S(=O)(=O)c1cccc(Cl)c1)C2=O: > 100 µM

// next item, GI50 requested
I'd like to know its GI50. The compound in question is COc1cccc(CN2Cc3cc(OC)c(OS(N)(=O)=O)cc3CC2(C)C)c1
> 100 µM

* * *

Listed next: entries and their corresponding melting point.

COc1cc2c(cc1OCc1ccccc1)CCN(C(=O)c1cccc(C#N)c1)C2=O [compound 135]: 195 to 196 °C
COc1cc2c(cc1O)CCN(C(=O)c1ccc(OC)c(OC)c1)C2 [compound 118]: 132 to 133 °C
COc1cc(CN2CCc3cc(O)ccc3C2)cc(OC)c1 [B20]: 189 to 195 °C
COc1cc2c(cc1O)CC(C)(C)N(C(=O)c1cc(OC)c(OC)c(OC)c1)C2 [compound 234]: 159 to 162 °C
COc1cc(OC)c(CN2CCc3cc(O)c(OC)cc3C2)c(OC)c1 [F3]: 150 to 151 °C

Dear colleague, I am looking for the recorded melting point of the following compound: COc1cc2c(cc1OCc1ccccc1)CCN(S(=O)(=O)c1cccc(C(F)(F)F)c1)C2 [compound 172]
136 to 138.5 °C

* * *

# melting point per entry

COc1cc2c(cc1OCc1ccccc1)CCN(Cc1cc(F)cc(F)c1)C2 [F5]: 116 to 117 °C

So what does the record say about melting point for COc1ccc(C(=O)N2CCc3cc(O)ccc3C2)c(OC)c1 [B8] ?
62 to 87 °C

Could you tell me which melting point is on file for COc1cc2c(cc1O)CC(C)(C)N(Cc1cc(OC)c(OC)c(OC)c1)C2 [compound 229] ?
143 to 147 °C

Which melting point reading was recorded for the molecule COc1cc2c(cc1OCc1ccccc1)CCN(C(=O)c1ccccc1OC)C2=O [compound 130] ?
163 to 164 °C

Which melting point is reported for this molecule? COc1cc2c(cc1O)CCN(Cc1ccccc1OC)C2=O [compound 161]
164 to 165 °C

Return reported melting point; argument: COc1ccc(C(=O)N2CCc3cc(OCc4ccccc4)c(OC)cc3C2=O)cc1OC [compound 133]
200 to 201 °C

Give its melting point value. Item: COc1ccccc1CN1CCCc2cc(OCc3ccccc3)c(OC)cc2C1 [compound 302]
105 to 106 °C

For the molecule shown here, COc1cc2c(cc1OS(N)(=O)=O)CCN(Cc1cccc(NS(C)(=O)=O)c1)C2 [compound 88] , give the reported melting point.
151 to 152 °C

Bench note: what melting point did COc1cc2c(cc1OCc1ccccc1)CCN(Cc1cccnc1)C2 [compound 11] show?
78 to 79 °C

* * *

Measured melting point, listed per entry for reference.

Known melting point results, listed for orientation:
COc1cc(CN2Cc3cc(OC)c(O)cc3CC2C)cc(OC)c1 (centres unmarked): 155 to 158 °C
COc1cc2c(cc1O)CCN(Cc1cccc(OC)c1OC)C2: 101 to 102 °C
COc1cc(OC)c(OC)cc1CN1CCc2cc(OCc3ccccc3)c(OC)cc2C1: 110 to 111 °C
COc1cc2c(cc1O)CCN(S(=O)(=O)c1cccc(Cl)c1)C2=O: 178 to 181 °C
COc1cc2c(cc1O)CCN(S(=O)(=O)c1cccc(C)c1)C2: 176 to 179 °C
COc1ccc(CN2CCc3cc(O)c(OC)cc3C2=O)cc1: 171 to 172 °C
Oc1ccc2c(c1)CCN(Cc1ccc3c(c1)OCO3)C2 [B2]: 63 to 87 °C
COC(=O)c1cccc(CN2CCc3cc(O)c(OC)cc3C2)c1 [70A]: 156 to 158 °C

State the recorded melting point for this entry: CCOC1CN(Cc2ccc(OC)cc2)Cc2cc(OC)c(OCc3ccccc3)cc21 (centres unmarked)
84 to 85 °C

Sample COc1cc2c(cc1O)CCN(Cc1cccc(Cl)c1)C2 — what was its melting point?
118 to 119.5 °C

// melting point lookup, key: COc1cc2c(cc1OCc1ccccc1)CCN(Cc1cccc(OC)c1OC)C2
106 to 107 °C

* * *

Each item that follows carries a reported melting point.

Please review the following examples before continuing.
COc1cc2c(cc1O)CCN(Cc1cccc(OC(C)=O)c1)C2: 120 to 122 °C
COc1cccc(CN2Cc3cc(OC)c(O)cc3C(OC)C2)c1 (stereo not shown): 133 to 134 °C
COc1cccc(CN2Cc3cc(OC)c(O)cc3CC2C)c1 (stereo not shown): 100 to 105 °C
COc1cc2c(cc1OCc1ccccc1)CC(C)(C)N(C(=O)c1cc(OC)c(OC)c(OC)c1)C2C (stereo not shown): 175 to 177 °C
COc1cc2c(cc1O)CCN(Cc1cc(OC)c(OC)cc1OC)C2: 152 to 153 °C

Value lookup for melting point; key = CCOc1ccc(C(=O)N2CCc3cc(O)ccc3C2)cc1OCC
149 to 160 °C

Using the record for COc1cc(CN2CCc3cc(O)c(OC)cc3C2)cc(OC)c1 , report its melting point.
127 to 128 °C

I would be grateful if you could share the reported melting point for COc1cc2c(cc1O)CCN(Cc1cc(OC)c(OC)c(OC)c1)C2=O .
168 to 169 °C

Which melting point value is on record for COc1ccc(C(=O)CN2CCc3cc(OCc4ccccc4)c(OC)cc3C2)cc1OC ?
126 to 127 °C

* * *

Item-by-item account of GI50
# Test system: DU145 cells
# experimentDescription: Antiproliferative assay in DU145 cells, WST-1 cell proliferation assay, 96 hours (GI50)
# Format: cell-based
# conditionContext: Homo sapiens, DU-145, 96 hours post-treatment, triplicate

COc1cc2c(cc1OCc1ccccc1)CCN(C(=O)c1cccc(C#N)c1)C2=O [compound 135]: > 100 µM

Data request, read-out GI50, for COc1ccccc1COc1cc2c(cc1OC)C(=O)N(Cc1ccccc1OC)CC2 [compound 156]
> 100 µM

Which GI50 reading was recorded for the compound COc1cccc(S(=O)(=O)N2CCc3cc(O)c(OC)cc3C2)c1 [compound 178] ?
> 100 µM

* * *

quantity: melting point

COc1cc2c(cc1OCc1ccccc1)CCN(Cc1cccc(N)c1)C2: 114 to 115 °C
COc1cc2c(cc1O)CCN(Cc1cc(OC)c(OC)c(OC)c1)C2: 170 to 171 °C
CCOC1CN(Cc2cc(OC)c(OC)c(OC)c2)Cc2cc(OC)c(O)cc21 (centres unmarked): 94 to 96 °C

// query melting point value for entry COc1cc2c(cc1O)CCN(Cc1cccc(F)c1)C2
125 to 127 °C

Recorded melting point of COc1cc(CCN2CCc3cc(O)ccc3C2)cc(OC)c1OC , please.
180 to 186 °C

melting point lookup needed for COc1cc2c(cc1O)CC(C)N(Cc1cc(OC)c(OC)c(OC)c1)C2 (centres unmarked) , thanks.
127 to 132 °C

Recorded melting point for COc1cc(OC)cc(C(=O)N2CCc3cc(O)ccc3C2=O)c1 , please?
178 to 179 °C
